The origin of these recorded values is the supplement of paper PMC12667976.

B1: library; numbered along this chain (parent)
chain: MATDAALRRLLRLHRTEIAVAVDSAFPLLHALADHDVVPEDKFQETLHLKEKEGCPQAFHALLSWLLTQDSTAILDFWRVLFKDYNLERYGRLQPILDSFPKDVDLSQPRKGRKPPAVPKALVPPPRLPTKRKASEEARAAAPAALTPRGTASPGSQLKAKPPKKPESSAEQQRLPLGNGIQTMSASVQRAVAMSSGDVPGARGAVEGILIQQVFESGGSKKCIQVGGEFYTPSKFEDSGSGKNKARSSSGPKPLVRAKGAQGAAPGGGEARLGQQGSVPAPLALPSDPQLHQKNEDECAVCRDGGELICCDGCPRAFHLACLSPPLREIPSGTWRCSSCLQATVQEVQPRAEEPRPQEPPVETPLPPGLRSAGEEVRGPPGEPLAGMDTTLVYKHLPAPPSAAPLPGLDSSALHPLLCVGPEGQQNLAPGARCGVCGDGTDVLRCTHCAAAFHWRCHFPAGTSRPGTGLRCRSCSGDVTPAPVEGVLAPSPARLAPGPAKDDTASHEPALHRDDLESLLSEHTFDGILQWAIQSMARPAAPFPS

- Variants of: B1
- ASSAY: AIRE transcriptional activation functional score (insulin promoter-GFP; nonsense median 0, synonymous median 1) (normalised score); higher = higher AIRE activity (more reporter activation)
- APPLIED_CONDITIONS: with insulin promoter-GFP reporter in HEK293
Each entry below lists one item and its recorded AIRE transcriptional activation functional score value.

Below: 5 variants and their reported AIRE transcriptional activation functional score.
1) P254G :: 0.342
2) L255R :: 0.419
3) G201P :: 0.598
4) P282T :: 1.27
5) K159C :: 1.14

INPUT: Entry K114A has what AIRE transcriptional activation functional score?
OUTPUT: -0.00452

INPUT: Entry I533N has what AIRE transcriptional activation functional score?
OUTPUT: -0.116
